Just for reference, PubChem BioAssay (NCI) is where these values come from.

Test system: NCI-H322M lung
Experiment: NCI-60 one-dose screen, 48 h (100 = growth as untreated, 0 = no growth, -100 = all killed)
Details: 10 µM
Compounds without any hit were thinned out: in the full panel of roughly 83,000, 20% have a hit.
Task for the reader: assign each of the following compounds its reported growth.
Numeric only. Scale: %

q: What value of growth has been reported for the following compound? CC1(C)CCC(=NNC(N)=S)CC1
a: 115

q: Need growth of O=C(O)CC(Cl)C(Cl)CC(=O)O (stereo not given) , thanks.
a: 93.1

q: Any idea what growth was measured for C#Cc1ccc(-n2c(/C=C/c3ccc(Cl)c(F)c3)nc3ncccc3c2=O)cc1 ?
a: -25

q: So what does the record say about growth for Nc1ncn([C@@H]2O[C@H](CO)[C@@H](O)[C@H]2O)c(=O)n1 ?
a: 15.9

q: Would you mind telling me what growth value was observed for CCN(CC)CCC(=O)Nc1cccc2c1C(=O)c1c(c(O)c3ccccc3c1O)C2=O ?
a: 56.7

q: Reported growth for CCCCOC(=O)Oc1ccc(C(=O)Oc2ccc(OCC)cc2)cc1 : what is it?
a: 98.6

q: I would be grateful if you could share the reported growth for Cc1cccc2c(NCCN(C)C)c3cccc(C(=O)NCCN(C)C)c3nc12 .
a: -5.21

q: Which growth reading was recorded for the compound O=C(Nc1ccc(OS(=O)(=O)c2ccccc2)cc1)C12CC3CC(CC(C3)C1)C2 ?
a: 68.7

q: Any idea what its growth is? The compound is COc1ccc(-c2nn(-c3cccc(NC(=O)Nc4ccc(Cl)c(C(F)(F)F)c4)c3)cc2-c2ccncc2)cc1Cl
a: 19.1

q: For the compound O=C(Nc1cccc(-n2cc(-c3ccncc3)c(-c3cc(O)cc(Cl)c3)n2)c1)Nc1ccc(Cl)c(C(F)(F)F)c1 , what growth is on record?
a: 45

---

Please provide measured growth for the entries that follow.
Tested on: NCI-H226 lung
Assay: NCI-60 one-dose screen, 48 h (100 = growth as untreated, 0 = no growth, -100 = all killed)
Conditions: 10 µM
This is part of a sample that, as a whole, favours compounds with a hit. Of some 83,000 tested, about 20% had one in any assay. The source made the active and inactive calls. Rule for the calls: active = growth percent below 10; inactive = the rest.

q: Bench note: what growth did C#Cc1ccc(-n2c(/C=C/c3ccc(O)c(OC)c3)nc3ncccc3c2=O)cc1 show?
a: 93.9% (inactive)

q: Need growth of COc1ccc(S(=O)(=O)Nc2c(/C=C\c3cc(OC)c(OC)c(OC)c3)ccc(OC)c2O)cc1 , thanks.
a: 12.9% (inactive)

q: // query growth value for entry COc1cc(-c2nc(-c3nnc(-c4ccccc4Cl)o3)c3ccccn23)cc(OC)c1OC
a: 84% (inactive)

q: I have this compound here, CN(C)CCN1C(=O)c2cccc3cc(N)cc(c23)C1=O , and I need its recorded growth.
a: -30.3% (active)

q: Quick check: growth of Nc1c(C(=O)Nc2ccccc2)sc2nc3c(cc12)C(O)CCC3 (stereo unspecified) ?
a: 74% (inactive)

q: What growth value was documented for this compound, COc1ccc2c(c1)O/C(=C\c1ncc([N+](=O)[O-])n1C)C2=O ?
a: -42.3% (active)

q: Which growth is listed for CCCCCCc1cc(N=Nc2ccc(S(=O)(=O)Nc3cc(C)nc(C)n3)cc2)c(O)cc1O ?
a: 98% (inactive)

q: Please give the measured growth for this compound: COc1ccc(C2CC(c3ccc(N(C)C)cc3)=NN2c2ccc(S(N)(=O)=O)cc2)cc1 (stereo unspecified)
a: 52.4% (inactive)

q: Query: growth; subject: Nc1nc(-c2ccccc2Cl)cc(-c2ccc(Cl)cc2Cl)n1
a: 87.7% (inactive)

q: Request the reported growth associated with CC(=O)OCc1cc(-c2nc3ccccc3[nH]c2=O)nn1-c1ccc(Cl)cc1
a: 93% (inactive)

q: Which growth is reported for this compound? O=C1NC(=O)c2ncccc21
a: 96.3% (inactive)

q: Need growth, item O=C(N/N=C/c1ccccc1O)C(O)(c1ccccc1)c1ccccc1
a: 71.1% (inactive)

q: Given COc1cc2c(cc1OC)N(CCO)C1=C(C(=O)OC1)C2c1ccc(Cl)c(Cl)c1 (stereo unspecified) , state its recorded growth.
a: 103% (inactive)

q: Fill in: growth of Cc1nc2c(c(=O)[nH]1)OCN(Cc1ccccc1)C2 is ___
a: 103% (inactive)

q: Query: growth; subject: O=C1Nc2ccccc2C1=NC1CCCCC1
a: 92% (inactive)

q: What does the record list as growth for COc1ccc(-c2nnc(-c3c(-c4ccccc4)nc4ncccn34)o2)cc1OC ?
a: 93.2% (inactive)

q: Value lookup for growth; key = c1ccc2c(c1)oc1c3cccnc3ccc21
a: 87.4% (inactive)

q: // lookup growth for COc1ccc(Cl)cc1-n1nnc(-c2nc3ccccc3[nH]2)c1N
a: 60% (inactive)

q: Form field: reported growth of COc1ccc2c(c1)C(=O)c1c-2c(OCCN2CCCCC2)nc2ccc(OC)cc12
a: 23.9% (inactive)

q: I would be grateful if you could share the reported growth for C=C1c2c(C)nn(-c3ccc(OC)cc3)c2N(C)C23C[C@@H]1C1(C)c4c(C)nn(-c5ccc(OC)cc5)c4N(C)C(C)(C[C@H]12)C3 (stereo partly specified) .
a: 48.7% (inactive)

q: Query: growth; subject: Cn1c(C(N)=O)cc2c1-c1nc(Nc3ccccc3)ncc1CCC2
a: 38.1% (inactive)

---

Would you kindly list growth for each of these compounds?
Tested on: NCI-H226 lung
Experiment: NCI-60 one-dose screen, 48 h (100 = growth as untreated, 0 = no growth, -100 = all killed)
Conditions: 10 µM
This is part of a sample that, as a whole, favours compounds with a hit. Of some 83,000 tested, about 20% had one in any assay.
Please give a number only; it is taken to be in %.

q: State the recorded growth for this entry: CC(=O)c1nc2ccccc2n1CCNC(N)=O
a: 100

q: Tell me the measured growth of O=C(Nc1nc(-c2ccccc2Cl)cs1)c1cc(-c2ccc(Cl)cc2)nc2ccc(Cl)cc12 , please.
a: 72.7

q: Could you tell me which growth is on file for O=S(=O)(NCCCNc1nccc(-c2c(-c3ccc(F)cc3)nc3sccn23)n1)c1ccc2ccccc2c1 ?
a: 57.4

q: Recorded growth for O=C(Nc1cccc(-n2cc(-c3ccncc3)c(-c3cc(O)cc(Cl)c3)n2)c1)Nc1ccc(Cl)c(C(F)(F)F)c1 , please?
a: 41.2

q: Param item = Clc1ccc(Nc2ccnc(NCCCNc3ccnc4cc(Cl)ccc34)n2)cc1 ; retrieve measured growth.
a: 93.7

q: Could you share which growth value was measured for CCN1CCC2(CC1)OC(c1ccccc1)C(c1ccccc1)O2 (stereo not given) ?
a: 96.6

q: // returns reported growth for input COc1ccc(-c2nc(-c3nc4cc(Cl)c(F)cc4[nH]3)c3ccccn23)cc1
a: 85.1

q: Please look up its growth: Cn1c(N)c(N=Nc2ccc(S(=O)(=O)Nc3nccs3)cc2)c(=O)n(C)c1=O
a: 104

q: What measured growth goes with COc1ccc(Nc2nc3ccc(NC(=O)NC4CCCCC4)cc3[nH]c2=O)cc1 ?
a: 94.5

q: Look up growth for this compound: CC(=O)/C(=C/c1ccccc1)C(=O)CC(C)C
a: 106

---

Test system: RPMI-8226 leukemia
Assay: NCI-60 one-dose screen, 48 h (100 = growth as untreated, 0 = no growth, -100 = all killed)
Details: 10 µM
Compounds without any hit were thinned out: in the full panel of roughly 83,000, 20% have a hit.
For each record, check the reported growth: if it is below 90% write rule met, else write rule not met.

q: Confirm or reject: growth of CCN(CC)CCOc1nc2cc(OC)c(OC)cc2c2c1-c1ccc(OC)cc1C2=O lies strictly below 90%
a: rule met

q: Identify whether the molecule CC1=C(N2CCOCC2)C(N2CCOCC2)=C(C)C(=O)C1=O records growth below 90%.
a: rule not met

q: Is the reported growth for Cc1ccc(C(=O)Nc2cccc(F)c2)cc1NC(=O)C1(c2ncnc3[nH]ccc23)CC1 strictly below 90%?
a: rule met

q: Does the reported growth of CC(C)(C#N)Nc1ccccc1 stay below 90%?
a: rule not met

q: I'd appreciate it if you could check whether COc1cc(-c2nc(-c3nnc(-c4ccc(F)c(Cl)c4)o3)c3ccccn23)cc(OC)c1OC has growth smaller than 90%.
a: rule met

---

Tested on: OVCAR-3 ovarian
Test: NCI-60 one-dose screen, 48 h
Settings: 10 µM
Experimental: Growth inhibition of the OVCAR-3 human tumor cell line is measured as a screen for anti-cancer activity. Cells are grown in 96 well plates and exposed to the test compound for 48 hours. Compounds are tested at a single concentration, which is 10^-5 M for most compounds. The reported endpoint is percent growth (GI% or GIPRCNT), where numbers from 0 - 100% represent growth inhibition, and numbers from -100% - 0 represent cell death. For example, a value of 40 represents 60% growth inhibition. […]
This is part of a sample that, as a whole, favours compounds with a hit. Of some 83,000 tested, about 20% had one in any assay. The source made the active and inactive calls. Rule for the calls: active = growth percent below 10; inactive = the rest.
Choose the fitting class; nothing outside 1 (yes) = active, 0 (no) = inactive is accepted.

q: Recorded call for COc1ccc(-c2nn(-c3cccc(NC(=O)c4cc(C(F)(F)F)cc(C(F)(F)F)c4)c3)cc2-c2ccncc2)cc1Cl ?
a: 0 (no)

q: Answer briefly: the call reported for COc1cc(CNCCCCCCN2C(=O)c3cccc4cccc(c34)C2=O)ccc1O in this assay.
a: 0 (no)

q: Name the outcome recorded for CC(C)=CCc1cc(O)cc2c1OC(C=C(C)C)C1=C2C(=O)C2=C(C1=O)S(=O)(=O)CCN2 (stereo not given) in the assay.
a: 1 (yes)

q: Hi, sorry to bother you, what did the test record for COc1cc(-c2nc(Nc3nc4ccccc4s3)[nH]c(=O)c2C#N)cc(OC)c1O ?
a: 0 (no)

q: Just curious, what result did Cc1cc(O)c(C(C)(C)C)cc1Sc1cc(C(C)(C)C)c(O)cc1C get here?
a: 0 (no)
